Just for reference, ChEMBL document CHEMBL5291721 is where these values come from.

biological target: Prostaglandin G/H synthase 1 (Rattus norvegicus); format: functional; note: assay procedure not described here
Sequence (Q63921 whole entry): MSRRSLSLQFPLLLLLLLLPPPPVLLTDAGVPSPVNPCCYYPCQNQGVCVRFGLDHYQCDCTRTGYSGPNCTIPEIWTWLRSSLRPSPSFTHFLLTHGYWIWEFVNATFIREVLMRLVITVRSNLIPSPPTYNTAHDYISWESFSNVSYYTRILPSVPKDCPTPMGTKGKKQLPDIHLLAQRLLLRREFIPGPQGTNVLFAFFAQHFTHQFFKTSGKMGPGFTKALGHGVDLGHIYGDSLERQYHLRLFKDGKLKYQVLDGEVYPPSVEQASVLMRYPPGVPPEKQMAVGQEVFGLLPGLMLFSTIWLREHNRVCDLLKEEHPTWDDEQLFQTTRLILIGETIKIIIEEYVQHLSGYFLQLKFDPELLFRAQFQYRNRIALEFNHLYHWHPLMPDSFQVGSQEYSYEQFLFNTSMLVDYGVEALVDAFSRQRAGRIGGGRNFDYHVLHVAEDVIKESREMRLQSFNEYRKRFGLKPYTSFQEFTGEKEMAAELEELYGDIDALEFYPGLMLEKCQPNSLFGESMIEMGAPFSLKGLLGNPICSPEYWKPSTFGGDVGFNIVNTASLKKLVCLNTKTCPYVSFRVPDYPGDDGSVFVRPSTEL
metric: AC50

>>> result("COc1ccc2c3c1O[C@H]1[C@@H](O)C=C[C@H]4[C@@H](C2)N(C)CC[C@@]341 [CODEINE]")
"> 30 µM"
>>> result("CN1C(=O)C(O)N=C(c2ccccc2Cl)c2cc(Cl)ccc21 (centres undefined) [LORMETAZEPAM]")
"> 10 µM"
>>> result("C[C@]12CC[C@H]3[C@@H](CCC4=CC(=O)CC[C@@]43C)[C@@H]1CC[C@@H]2O [TESTOSTERONE]")
"> 10 µM"
>>> result("CCN(CC)C(=O)N[C@H]1C[C@@H]2c3cccc4[nH]cc(c34)C[C@H]2N(C)C1 [TERGURIDE]")
"> 30 µM"
>>> result("CN1CCC(=C2c3ccccc3CCc3sccc32)CC1 [PIZOTYLINE]")
"> 30 µM"
>>> result("CC(CC(c1ccccc1)c1ccccc1)NC(C)(C)C (centres undefined) [TERODILINE]")
"> 30 µM"
>>> result("C[C@H]1CNCCc2ccc(Cl)cc21 [LORCASERIN]")
"> 30 µM"
>>> result("CC(Oc1c(Cl)cccc1Cl)C1=NCCN1 (centres undefined) [LOFEXIDINE]")
"> 30 µM"
>>> result("NCC[C@H](O)C(=O)N[C@@H]1C[C@H](N)[C@@H](O[C@H]2O[C@H](CN)[C@@H](O)[C@H](O)[C@H]2O)[C@H](O)[C@H]1O[C@H]1O[C@H](CO)[C@@H](O)[C@H](N)[C@H]1O [AMIKACIN]")
"> 10 µM"

----------
Protein target, amino acids: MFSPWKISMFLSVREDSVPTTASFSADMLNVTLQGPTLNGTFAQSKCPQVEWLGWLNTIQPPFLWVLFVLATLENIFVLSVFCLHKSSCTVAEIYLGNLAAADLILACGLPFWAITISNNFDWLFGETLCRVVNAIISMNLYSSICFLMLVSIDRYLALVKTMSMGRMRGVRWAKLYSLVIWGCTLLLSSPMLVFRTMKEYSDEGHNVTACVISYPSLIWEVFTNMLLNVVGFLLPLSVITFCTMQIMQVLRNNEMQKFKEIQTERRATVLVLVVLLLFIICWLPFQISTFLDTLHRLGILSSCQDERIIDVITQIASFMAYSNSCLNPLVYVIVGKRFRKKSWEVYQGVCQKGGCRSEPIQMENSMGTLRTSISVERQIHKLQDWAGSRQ
metric: AC50

>>> result("C=CCc1ccccc1OCC(O)CNC(C)C (centres undefined)")
"14 µM"
>>> result("NCC[C@H](O)C(=O)N[C@@H]1C[C@H](N)[C@@H](O[C@H]2O[C@H](CN)[C@@H](O)[C@H](O)[C@H]2O)[C@H](O)[C@H]1O[C@H]1O[C@H](CO)[C@@H](O)[C@H](N)[C@H]1O")
"> 10 µM"
>>> result("CCN1CCN(C(=O)N[C@@H](C(=O)N[C@@H]2C(=O)N3C(C(=O)O)=C(CSc4nnnn4C)CS[C@H]23)c2ccc(O)cc2)C(=O)C1=O")
"> 30 µM"
>>> result("CN(C)CC/C=C1\\c2ccccc2CSc2ccccc21 [DOTHIEPIN]")
"> 30 µM"
>>> result("COc1cc2nc(N3CCN(C(=O)c4ccco4)CC3)nc(N)c2cc1OC")
"> 30 µM"
>>> result("COc1ccccc1OCC(O)CN1CCN(CC(=O)Nc2c(C)cccc2C)CC1 (centres undefined)")
"> 30 µM"
>>> result("Cc1cc(O)c(C(=O)N[C@@H](C(=O)N[C@@H]2C(=O)N3C(C(=O)O)=C(CSc4nnnn4C)CS[C@H]23)c2ccc(O)cc2)cn1 [CEFPIRAMIDE]")
"> 30 µM"
>>> result("CN(C)CCC=C1c2ccccc2C=Cc2ccccc21")
"> 30 µM"
>>> result("Nc1nc(N)nc(-c2cc(Cl)ccc2Cl)n1")
"> 30 µM"

----------
molecular target: Glutamate receptor ionotropic, NMDA 1 (Rattus norvegicus, UniProt P35439); note: assay procedure not described here
Listed below: AC50 values for each entry.
metric: AC50

>>> result("c1ccc([C@H]2CN3CCSC3=N2)cc1")
"> 30 µM"
>>> result("Cc1cn([C@H]2C=C[C@@H](CO)O2)c(=O)[nH]c1=O")
"> 10 µM"
>>> result("CN1C(=O)CCS(=O)(=O)C1c1ccc(Cl)cc1 (centres undefined)")
"> 10 µM"
>>> result("C=CCN1CCCC1CNC(=O)c1cc(S(N)(=O)=O)cc(OC)c1OC (centres undefined) [VERALIPRIDE]")
"> 30 µM"
>>> result("CC(C[N+](C)(C)C)OC(N)=O (centres undefined)")
"> 10 µM"
>>> result("Clc1ccccc1C(c1ccccc1)(c1ccccc1)n1ccnc1")
"> 10 µM"
>>> result("CC[C@H]1CN2CCc3cc(OC)c(OC)cc3[C@@H]2C[C@@H]1C[C@H]1NCCc2cc(OC)c(OC)cc21")
"> 30 µM"
>>> result("CCOC(=O)[C@H](CCc1ccccc1)N[C@@H](C)C(=O)N1C(=O)N(C)C[C@H]1C(=O)O")
"> 30 µM"
>>> result("CCCC(C)C1(CC)C(=O)NC(=O)NC1=O (centres undefined)")
"> 10 µM"

----------
molecular target: Beta-1 adrenergic receptor (Homo sapiens, UniProt P08588); assay type: functional; note: assay procedure not described here
Sequence (P08588 whole entry): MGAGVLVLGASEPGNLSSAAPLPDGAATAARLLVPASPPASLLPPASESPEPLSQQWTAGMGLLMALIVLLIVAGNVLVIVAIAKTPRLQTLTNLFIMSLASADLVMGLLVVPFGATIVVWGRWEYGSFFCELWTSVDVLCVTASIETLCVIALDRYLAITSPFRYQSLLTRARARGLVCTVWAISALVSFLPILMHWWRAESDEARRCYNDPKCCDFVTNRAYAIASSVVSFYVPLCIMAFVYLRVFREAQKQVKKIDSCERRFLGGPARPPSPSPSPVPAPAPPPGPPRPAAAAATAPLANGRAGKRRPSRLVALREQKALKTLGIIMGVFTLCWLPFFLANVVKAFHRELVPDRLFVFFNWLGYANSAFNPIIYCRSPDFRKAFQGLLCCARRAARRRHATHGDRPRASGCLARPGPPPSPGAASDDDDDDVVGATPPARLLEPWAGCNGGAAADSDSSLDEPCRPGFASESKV
metric: AC50

>>> result("CN1CCN(CC/C=C2/c3ccccc3Sc3ccc(S(=O)(=O)N(C)C)cc32)CC1")
"> 10 µM"
>>> result("C=CCN1C[C@H](C(=O)N(CCCN(C)C)C(=O)NCC)C[C@@H]2c3cccc4[nH]cc(c34)C[C@H]21")
"> 10 µM"
>>> result("COc1cc2c(N)nc(N3CCN(C(=O)OCC(C)(C)O)CC3)nc2c(OC)c1OC")
"> 30 µM"
>>> result("Nc1nc(/C(=C/CC(=O)O)C(=O)N[C@@H]2C(=O)N3C(C(=O)O)=CCS[C@H]23)cs1")
"> 30 µM"
>>> result("CN(C)CC/C=C1\\c2ccccc2CSc2ccccc21 [DOTHIEPIN]")
"> 30 µM"
>>> result("CC(Oc1c(Cl)cccc1Cl)C1=NCCN1 (centres undefined)")
"> 30 µM"
>>> result("CC(C(=O)O)c1ccc(N2Cc3ccccc3C2=O)cc1 (centres undefined)")
"> 30 µM"
>>> result("CCOC(=O)OC(C)OC1=C(C(=O)Nc2ccccn2)N(C)S(=O)(=O)c2ccccc21 (centres undefined)")
"> 30 µM"
>>> result("CCOc1ccccc1OCC1CNCCO1 (centres undefined)")
"> 10 µM"
>>> result("CCOC(=O)[N-]c1cn(N2CCOCC2)n[o+]1")
"> 30 µM"
>>> result("O=C(O[C@H]1C[C@H]2CC[C@@H](C1)[N+]21CCCC1)C(O)(c1ccccc1)c1ccccc1")
"> 30 µM"
>>> result("O=C(O)CCCCCCNC1c2ccccc2CCc2ccccc21")
"> 30 µM"
>>> result("N#Cc1ccc([C@H]2CCc3cncn32)c(F)c1")
"> 10 µM"
>>> result("CC1(C)NC(=O)N(c2ccc([N+](=O)[O-])c(C(F)(F)F)c2)C1=O [NILUTAMIDE]")
"> 30 µM"
>>> result("C[C@]12CCC(=O)C=C1CC[C@@H]1[C@@H]2[C@@H](O)C[C@@]2(C)[C@H]1CC[C@]2(O)C(=O)CO [HYDROCORTISONE]")
"> 10 µM"
>>> result("Cc1ccc(S(=O)(=O)NC(=O)NN2CC3CCCC3C2)cc1 (centres undefined) [GLICLAZIDE]")
"> 10 µM"
>>> result("CCOC(=O)[C@H](CCc1ccccc1)N[C@@H](C)C(=O)N1[C@H](C(=O)O)C[C@@H]2CCC[C@@H]21")
"> 10 µM"
>>> result("COc1ccccc1OCC(O)CN1CCN(CC(=O)Nc2c(C)cccc2C)CC1 (centres undefined)")
"7.8 µM"
>>> result("O=C(O)CCCCCCCC(=O)O")
"> 10 µM"

----------
Recorded AC50 values (Gamma-aminobutyric acid receptor subunit alpha-1 (Rattus norvegicus, UniProt P62813)) are given below.
metric: AC50

>>> result("CCOC(=O)OC(C)OC1=C(C(=O)Nc2ccccn2)N(C)S(=O)(=O)c2ccccc21 (stereo not drawn)")
"> 30 µM"
>>> result("Clc1ccc(CCCOCCCN2CCCCC2)cc1")
"> 30 µM"
>>> result("C[C@H]1COc2c(C3(N)CC3)c(F)cc3c(=O)c(C(=O)O)cn1c23")
"> 10 µM"
>>> result("CCCCCNC(=N)N/N=C/c1c[nH]c2ccc(OC)cc12")
"> 30 µM"
>>> result("CC[C@H]1CN2CCc3cc(OC)c(OC)cc3[C@@H]2C[C@@H]1C[C@H]1NCCc2cc(OC)c(OC)cc21")
"> 30 µM"
>>> result("Cc1cc(C)c(NC(=O)CN(CC(=O)O)CC(=O)O)c(C)c1Br")
"> 30 µM"
>>> result("COc1cccc(C2(O)CCCCC2CN(C)C)c1 (stereo not drawn)")
"> 10 µM"
>>> result("CCCC1O[C@@H]2C[C@H]3[C@@H]4CCC5=CC(=O)C=C[C@]5(C)[C@H]4[C@@H](O)C[C@]3(C)[C@]2(C(=O)CO)O1 (stereo partly drawn) [BUDESONIDE]")
"> 10 µM"
